measurement protocol: NCI Yeast Anticancer Drug Screen. Data for the bub3 strain (AID 167)
measurement context: S. cerevisiae bub3 mutant strain, at 50.0 µM (retest, dose inferred, filed as 5.0), hits give high values
Compounds without any hit were thinned out: in the full panel of roughly 79,000, 15% have a hit.
Use YES when the recorded growth inhibition is no lower than 80%; use NO when it is lower.

compound="CCCCCCCCCCCC1N=C(N)NC(CCCO)=C1C(=O)OC (configuration not stated)" answer_label=YES
compound=CN(C)c1nc(=Nc2cccc(Cl)c2)ss1 answer_label=YES
compound="CCOC(=O)CC1(C(=O)OCC)c2[nH]c3ccccc3c2CCN1Cc1ccccc1 (configuration not stated)" answer_label=NO
compound=CCOC(=O)/C(=C\c1ccc(C#N)cc1)C(C)=O answer_label=YES
compound=COC(=O)Nc1cn2ccc(C(Cl)=C(Cl)Cl)cc2n1 answer_label=NO
compound=CC[N+](CC)(CC)c1ccccc1 answer_label=NO
compound=C=C(C(=C)n1nnc(C(=O)OC)c1C(=O)OC)n1nnc(C(=O)OC)c1C(=O)OC answer_label=NO
compound=O=C(O)Cc1cc(F)ccc1C(=O)O answer_label=NO
compound="C[CH2][Sn]([CH2]C)([O]C(=O)C(N)Cc1ccccc1)[O]C(=O)C(N)Cc1ccccc1 (configuration not stated)" answer_label=NO
compound=COc1c(O)c(C=O)c(Br)c(C=O)c1O answer_label=YES
compound="CCC1(OC(=O)CN2CCN(CCO)CC2)C(=O)OCc2c1cc1n(c2=O)Cc2cc3ccccc3nc2-1 (configuration not stated)" answer_label=NO
compound="CCc1ccc2c(c1)N(CC(C)CN(C)C)c1ccccc1S2 (configuration not stated)" answer_label=NO
compound="CC(C)(C)[Si](C)(C)OCC1CCC(n2cnc3c(NC(=O)c4ccccc4)ncnc32)O1 (configuration not stated)" answer_label=NO
compound=COc1ccc(C(=O)Oc2ccccc2Br)cc1 answer_label=NO
compound="COC(=O)CC1CCc2c(ccc3ccccc23)C1(C)C(=O)OC (configuration not stated)" answer_label=NO
compound="COC(=O)CCC(NC(=S)N/N=C(\\C)c1ccccn1)C(=O)OC (configuration not stated)" answer_label=YES
compound=S=c1sc2c(s1)SCCS2 answer_label=NO
compound="CC(O)=NC(Cc1ccc2ccccc2c1)C(O)=NC(Cc1ccc(Cl)cc1)C(O)=NC(Cc1c[nH]c2ccccc12)C(O)=NC(CO)C(O)=NC(Cc1ccc(O)cc1)C(O)=NC(CCCN=C(N)N)C(O)=NC(CC(C)C)C(O)=NC(CCCN=C(N)N)C(=O)N1CCCC1C(O)=NC(C)C(=N)O (configuration not stated)" answer_label=NO
compound=O=C1C=C(Cl)C(=O)N1c1cccc(Cl)c1 answer_label=YES
compound="COc1cc(C2c3cc4c(cc3OC(OC(C)=O)C2C)OCO4)cc(OC)c1OC (configuration not stated)" answer_label=NO
compound=Cc1ccc(Cl)cc1NC(=O)OCCN(C)C(=O)Nc1cc(Cl)ccc1C answer_label=NO
compound="CCC(C)OC(=O)Nc1ccc(C)c(NC(=O)OC(C)CC)c1 (configuration not stated)" answer_label=YES
compound=Cc1csc(=S)n1OC(=O)NC1CCCCC1 answer_label=YES
compound=NC1CCCCC1N.Nc1c(N=Nc2ccc(-c3ccc(N=Nc4cc(S(=O)(=O)[O-])c5ccccc5c4N)cc3)cc2)cc(S(=O)(=O)[O-])c2ccccc12.[OH3+].[OH3+].[Pt+4] answer_label=YES
compound=NCCNCCNc1ccc(NCCNCCN)c2c1C(=O)c1c(O)ccc(O)c1C2=O answer_label=NO
compound=CCOc1ccc(NC(=O)C2=C(C)NC(C)=C(C(=O)Nc3ccc(OCC)cc3)C2c2cccc([N+](=O)[O-])c2)cc1 answer_label=YES
compound=Cc1cc(C(C)(C)C)c(OCCCN2CCOCC2)c(C(C)(C)C)c1 answer_label=NO
compound=Oc1ccc(O)c(Cc2ccccc2)c1 answer_label=YES
compound=O/N=C\c1c(O)ccc2ccccc12 answer_label=YES
compound=Cc1cc(C(C)(C)CC(C)(C)C)ccc1O answer_label=YES
compound=CC(=O)Nc1ccc2c(c1)Cc1cc(N=C3C=CC(=O)O3)ccc1-2 answer_label=YES
compound=Cc1cc2c(cc1C)[n+]([O-])c(-c1nc3ccccc3s1)c(N)[n+]2[O-] answer_label=YES
compound=CN(C)c1ccc2c(SCC(=O)OCC(=O)[C@@]3(O)CC[C@H]4[C@@H]5CCC6=CC(=O)C=C[C@]6(C)[C@H]5C(=O)C[C@@]43C)c3ccc(N(C)C)cc3nc2c1 answer_label=YES
compound=O=[N+]([O-])c1cc(F)c(F)cc1Sc1cc(F)c(F)cc1[N+](=O)[O-] answer_label=YES
compound="CCC(C)NC1=NCC(C)S1 (configuration not stated)" answer_label=YES
compound=Cc1nc2ccc(N=NN(C)C)cc2[nH]1 answer_label=YES

---

measurement protocol: NCI Yeast Anticancer Drug Screen. Data for the sgs1 strain (AID 173);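 also: 0% = growth of vehicle-only control cultures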
measurement context: S. cerevisiae sgs1 mutant, at 33.0 µM
This is part of a sample that, as a whole, favours compounds with a hit. Of some 79,000 tested, about 15% had one in any assay. The source made the active and inactive calls. Rule as the data show it: active = growth inhibition above about 70%; inactive = the rest.
Outcome codes: YES for active, NO for inactive

compound=CC(C)OC(=O)Nc1ccc2nc(-c3cscn3)[nH]c2c1 answer_label=NO
compound="COc1cc([C@@H]2c3cc4c(cc3[C@H](OC3OC5COC(C(C)C)OC5C(O)C3O)C3COC(=O)[C@@H]32)OCO4)cc(OC)c1O (stereo partly specified)" answer_label=NO
compound=O=C1C(Br)=C(c2ccccc2)O/C1=C/C(=O)c1ccc(Br)cc1 answer_label=NO
compound=CN(C)c1nc(=Nc2cccc(Cl)c2)ss1 answer_label=YES
compound="Nc1ccn(C2OC(COP(=O)(O)O)C(O)C2O)c(=O)n1 (stereo unspecified)" answer_label=YES
compound=Cc1cc(C(C)(C)CC(C)(C)C)ccc1O answer_label=YES
compound="CCCCCCCCCCCCCCCCOP(=O)(O)OCC(N)C(=O)O (stereo unspecified)" answer_label=YES
compound="C[Si](C)(C)/C=C/CCNC(C#N)c1ccccc1 (stereo unspecified)" answer_label=NO
compound="COc1cc(C2c3cc4c(cc3OC(OC(C)=O)C2C)OCO4)cc(OC)c1OC (stereo unspecified)" answer_label=NO
compound=C=C(Cl)COC(=O)Nc1cccc(Cl)c1 answer_label=NO
compound="CCOC(=O)CC1(C(=O)OCC)c2[nH]c3ccccc3c2CCN1Cc1ccccc1 (stereo unspecified)" answer_label=NO

---

measurement protocol: NCI Yeast Anticancer Drug Screen. Data for the rad52 strain (AID 147);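 also: 0% = growth of vehicle-treated control cultures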
measurement context: S. cerevisiae rad52 mutant growth inhibition; at 1.2 µM; hits give high values
This is part of a sample that, as a whole, favours compounds with a hit. Of some 79,000 tested, about 15% had one in any assay.
parameter measured: growth inhibition (%)

molecule=NC(=O)C(=O)NNc1ccccc1 numeric_value=4
molecule="CCC(C)OC(=O)Nc1ccc(C)c(NC(=O)OC(C)CC)c1 (stereo unspecified)" numeric_value=-1
molecule=CCOc1c(N=Nc2ccccc2OC)c(C)nn1C(=S)S numeric_value=0
molecule=CNC(=O)OCc1c(COC(=O)NC)c2n(c1C)-c1ccc(OC)cc1CCC2 numeric_value=-18
molecule=O=C(NNc1ccccc1)c1ccc(Cl)c(Cl)c1 numeric_value=-1
molecule="CCOC1Oc2ccccc2-c2nc(N)ncc21 (stereo unspecified)" numeric_value=7

---

measurement protocol: NCI Yeast Anticancer Drug Screen. Data for the mec2-1 strain (AID 157)
measurement context: S. cerevisiae mec2-1 strain, at 5.0 µM (retest, dose inferred, filed as 0.5), hits give high values
Compounds without any hit were thinned out: in the full panel of roughly 79,000, 15% have a hit.
parameter measured: growth inhibition (%)

molecule=COc1ccc2[nH]cc([C@@H]3C4CCC(C4)[C@H]3NCc3cccc(CN[C@H]4C5CCC(C5)[C@@H]4c4c[nH]c5ccc(OC)cc45)c3)c2c1 numeric_value=-2
molecule="Cc1ccc(NC(=O)/C(CC2N=c3c(ccc4c(O)c5ccccc5c(O)c34)=NC2O)=N/NC(C)(C)C)cc1 (stereo not given)" numeric_value=13
molecule=Oc1cccc2cc(Cl)cnc12 numeric_value=38
molecule=CC(C)(C)N=C(NO)c1ccccc1 numeric_value=-2
molecule=O=P(NC1CCCCC1)(OCc1ccccc1)OCc1ccccc1 numeric_value=5
molecule=CCCCCCCCCCCC1=NCCO1 numeric_value=-12
molecule=O=[N+]([O-])c1ccc2c(c1)/C(=N/N=C1c3ccccc3Cc3ccccc31)c1cc([N+](=O)[O-])cc([N+](=O)[O-])c1-2 numeric_value=24
molecule=Cc1cc(NCCCCCCCCNc2cc(C)nc3cc(N)ccc23)c2ccc(N)cc2n1 numeric_value=12
molecule=CCOC(=O)c1[nH]n(-c2ccccc2)c(=O)c1C=NC(=S)C(N)=S numeric_value=-22
molecule=C=C(C(=C)n1nnc(C(=O)OC)c1C(=O)OC)n1nnc(C(=O)OC)c1C(=O)OC numeric_value=-1

---

measurement protocol: NCI Yeast Anticancer Drug Screen. Data for the wt2 strain (AID 169);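 also: 0% = growth of vehicle-treated yeast cultures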
measurement context: S. cerevisiae wt2 strain growth inhibition; at 1.2 µM; hits give high values
About 79,000 compounds went through this panel and 15% of them were active in at least one assay; those are over-represented in the sample as a whole.
Below: a set of entries, each annotated with reported growth inhibition.
parameter measured: growth inhibition (%)

molecule=C[C@@](O)(/C=C/[C@H]1CC=CC(=O)O1)[C@@H](C[C@@H](O)\C=C/C=C\C=C\CO)OP(=O)(O)O numeric_value=4
molecule=Cc1cc(C(C)(C)C)c(OCCCN2CCOCC2)c(C(C)(C)C)c1 numeric_value=-2
molecule=CCc1c(Cl)c(C)cc(O)c1Cl numeric_value=-35
molecule=CCOC(=O)c1ccc(NC(=O)O/N=C(/Cl)C(C)C)cc1 numeric_value=-4
molecule=COc1ccc(C(=O)Oc2ccccc2Br)cc1 numeric_value=-5
molecule="O=C(O)C1CC(c2ccccc2)=NN1c1ccccc1 (configuration not stated)" numeric_value=-38
molecule=Cc1cc(C(C)(C)CC(C)(C)C)ccc1O numeric_value=-20
molecule="CCCCCCCCCCCCCCCCOP(=O)(O)OCC(N)C(=O)O (configuration not stated)" numeric_value=-17
molecule=Cc1cc(C)nc(NS(=O)(=O)c2ccc(Nc3c4ccccc4nc4c(C(=O)NCCO)cccc34)cc2)n1 numeric_value=-1
molecule=Cc1sc2ccc3ccccc3c2[n+]1C numeric_value=-11
molecule=CC(=O)Nc1ccc2c(c1)-c1ccccc1C2=O numeric_value=-4
molecule=CN(C)CCCCN1c2ccccc2Sc2ccc(N=[N+]=[N-])cc21 numeric_value=-8

Reference for the values: PubChem BioAssay (NCI)
